Measured pIC50 values are reported for all entries that follow.
Target: KRAS G12V (Homo sapiens, UniProt P01116+P62937, G12V)
Sequence (P01116 1-169 isoform P01116-2 G12V limits assumed): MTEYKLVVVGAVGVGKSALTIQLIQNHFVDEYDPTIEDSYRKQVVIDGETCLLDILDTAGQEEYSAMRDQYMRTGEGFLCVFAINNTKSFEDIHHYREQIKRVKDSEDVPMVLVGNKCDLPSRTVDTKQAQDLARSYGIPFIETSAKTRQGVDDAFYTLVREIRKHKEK
Sequence (P62937 whole entry): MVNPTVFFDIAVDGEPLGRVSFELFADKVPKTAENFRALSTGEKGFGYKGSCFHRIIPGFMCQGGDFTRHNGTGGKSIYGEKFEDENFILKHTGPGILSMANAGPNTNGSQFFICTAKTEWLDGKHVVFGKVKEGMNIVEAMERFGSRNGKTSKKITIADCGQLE
Test: Ras-Raf disruption / FRET / MOA assay (BRAF RBD)
Type: biochemical
Conditions: KRAS G12V FRET data IC50, Ras-Raf disruption, with Cyclophilin A
Source text: Disruption of […] Ras-binding Domain (BRAF^RBD) Interaction with K-Ras by Compounds of the Invention (also Called a FRET Assay or an MOA Assay) Note—The following protocol describes a procedure for monitoring disruption of K-Ras G12C (GMP-PNP) binding to BRAF^RBD by a compound of the invention. This protocol may also be executed substituting other Ras proteins or nucleotides, such as K-Ras G12D and K-Ras G13D. […]
pIC50: −log10 of the molar value.

Compound	Tested System	pIC50
CCn1c(-c2cccnc2[C@H](C)OC)c2c3cc(ccc31)-c1cc(O)cc(c1)C[C@H](NC(=O)[C@H](C(C)C)N(C)C(=O)CN(C)C(=O)[C@H]1CN1CCCOC)C(=O)N1CCC[C@H](N1)C(=O)OCC(C)(C)C2 (stereo partly shown)	KRAS G12V (Homo sapiens, UniProt P01116+P62937, G12V)	7.00 to 8.00
CCn1c(-c2cccnc2[C@H](C)OC)c2c3cc(ccc31)-c1cc(O)cc(c1)C[C@H](NC(=O)[C@H](C(C)C)N(C)C(=O)CN(C)C(=O)[C@H]1N[C@@H]1C1CC1)C(=O)N1CCC[C@H](N1)C(=O)OCC(C)(C)C2	KRAS G12V (Homo sapiens, UniProt P01116+P62937, G12V)	7.00 to 8.00
CCn1c(-c2cccnc2[C@H](C)OC)c2c3cc(ccc31)-c1cc(O)cc(c1)C[C@H](NC(=O)[C@H](C(C)C)N1CC[C@@H](NC(=O)[C@@H]3CN3)C1=O)C(=O)N1CCC[C@H](N1)C(=O)OCC(C)(C)C2	KRAS G12V (Homo sapiens, UniProt P01116+P62937, G12V)	6.00 to 7.00
CCn1c(-c2cccnc2[C@H](C)OC)c2c3cc(ccc31)-c1cc(O)cc(c1)C[C@H](NC(=O)[C@H](C(C)C)N(C)C(=O)[C@]13C[C@H]1CCN3C(=O)[C@@H]1CN1)C(=O)N1CCC[C@H](N1)C(=O)OCC(C)(C)C2	KRAS G12V (Homo sapiens, UniProt P01116+P62937, G12V)	6.00 to 7.00
CCn1c(-c2cccnc2[C@H](C)OC)c2c3cc(ccc31)-c1cc(O)cc(c1)C[C@H](NC(=O)[C@H](C(C)C)N(C)C(=O)CN(C)C(=O)[C@@H]1CN1C1COC1)C(=O)N1CCC[C@H](N1)C(=O)OCC(C)(C)C2 (stereo partly shown)	KRAS G12V (Homo sapiens, UniProt P01116+P62937, G12V)	7.00 to 8.00
CCn1c(-c2cccnc2[C@H](C)OC)c2c3cc(ccc31)-c1cc(O)cc(c1)C[C@H](NC(=O)[C@H](C(C)C)N1CC[C@@H](NC(=O)[C@H]3CN3)C1=O)C(=O)N1CCC[C@H](N1)C(=O)OCC(C)(C)C2	KRAS G12V (Homo sapiens, UniProt P01116+P62937, G12V)	6.00 to 7.00
CCn1c(-c2cccnc2[C@H](C)OC)c2c3cc(ccc31)-c1cc(O)cc(c1)C[C@H](NC(=O)[C@H](C1CCCC1)N(C)C(=O)CN(C)C(=O)[C@@H]1N[C@@H]1C1(OC)CC1)C(=O)N1CCC[C@H](N1)C(=O)OCC(C)(C)C2 (single isomer, unassigned)	KRAS G12V (Homo sapiens, UniProt P01116+P62937, G12V)	7.00 to 8.00
CC[C@@H]1N[C@@H]1C(=O)N(C)CC(=O)N(C)[C@H](C(=O)N[C@H]1Cc2cc(O)cc(c2)-c2ccc3c(c2)c(c(-c2cccnc2[C@H](C)OC)n3CC)CC(C)(C)COC(=O)[C@@H]2CCCN(N2)C1=O)C(C)C	KRAS G12V (Homo sapiens, UniProt P01116+P62937, G12V)	7.00 to 8.00
CCn1c(-c2cccnc2[C@H](C)OC)c2c3cc(ccc31)-c1cc(O)cc(c1)C[C@H](NC(=O)[C@H](C(C)C)N(C)C(=O)CN(C)C(=O)[C@@H]1CN1CC1(C)COC1)C(=O)N1CCC[C@H](N1)C(=O)OCC(C)(C)C2 (stereo partly shown)	KRAS G12V (Homo sapiens, UniProt P01116+P62937, G12V)	7.00 to 8.00
CCn1c(-c2cccnc2[C@H](C)OC)c2c3cc(ccc31)-c1cc(O)cc(c1)C[C@H](NC(=O)[C@H](C(C)C)N(C)C(=O)CN(C)C(=O)[C@@H]1CN1CCCN1CCCC1=O)C(=O)N1CCC[C@H](N1)C(=O)OCC(C)(C)C2 (stereo partly shown)	KRAS G12V (Homo sapiens, UniProt P01116+P62937, G12V)	7.00 to 8.00

For record CCn1c(-c2cccnc2[C@H](C)OC)c2c3cc(ccc31)-c1cc(O)cc(c1)C[C@H](NC(=O)[C@H](C1CCCC1)N(C)C(=O)CN(C)C(=O)[C@H]1N[C@H]1C1(F)CC1)C(=O)N1CCC[C@H](N1)C(=O)OCC(C)(C)C2 the listed pIC50 is 7.00 to 8.00

For record CCn1c(-c2cnccc2COC)c2c3cc(ccc31)-c1cc(O)cc(c1)C[C@H](NC(=O)[C@H](C(C)C)N(C)C(=O)CN(C)C(=O)[C@@H]1N[C@@H]1C(=O)OC)C(=O)N1CCC[C@H](N1)C(=O)OCC(C)(C)C2 the listed pIC50 is 6.00 to 7.00

For record CCn1c(-c2cccnc2[C@H](C)OC)c2c3cc(ccc31)-c1cc(O)cc(c1)C[C@H](NC(=O)[C@H](C(C)C)N(C)C(=O)CN(C)C(=O)[C@H]1N[C@H]1C(C)C)C(=O)N1CCC[C@H](N1)C(=O)OCC(C)(C)C2 the listed pIC50 is 7.00 to 8.00

For record CCn1c(-c2cccnc2[C@H](C)OC)c2c3cc(ccc31)-c1cc(O)cc(c1)C[C@H](NC(=O)[C@H](C1CCCC1)N(C)C(=O)[C@H](C)N(C)C(=O)[C@@H]1N[C@@H]1C1CC1)C(=O)N1CCC[C@H](N1)C(=O)OCC(C)(C)C2 the listed pIC50 is 7.00 to 8.00

For record CCn1c(-c2cccnc2[C@H](C)OC)c2c3cc(ccc31)-c1cc(O)cc(c1)C[C@H](NC(=O)[C@H](C(C)C)N(C)C(=O)CN(C)C(=O)[C@@H]1CN1CCCOC)C(=O)N1CCC[C@H](N1)C(=O)OCC(C)(C)C2 (stereo partly shown) the listed pIC50 is 7.00 to 8.00

For record CC[C@H]1N[C@H]1C(=O)N(C)CC(=O)N(C)[C@H](C(=O)N[C@H]1Cc2cc(O)cc(c2)-c2ccc3c(c2)c(c(-c2cccnc2[C@H](C)OC)n3CC)CC(C)(C)COC(=O)[C@@H]2CCCN(N2)C1=O)C(C)C the listed pIC50 is 7.00 to 8.00
